Data origin, for the record: PubChem BioAssay (NCI)

Reported growth values are given for each entry in this list.
tested on: OVCAR-3 ovarian; test: NCI-60 one-dose screen, 48 h (100 = growth as untreated, 0 = no growth, -100 = all killed); conditions: 10 µM unless noted
The panel holds about 83,000 compounds, 20% with a hit somewhere; the sample as a whole holds those more often.

{"COMPOUND": "CNc1ccc(Nc2cccc(C)c2)c2c1C(=O)c1ccccc1C2=O", "growth [%]": 110}
{"COMPOUND": "C#C[C@]1(O)CC[C@H]2[C@@H]3CC=C4c5sc(Nc6ccccc6)nc5CC[C@]4(C)[C@H]3CC[C@@]21C", "growth [%]": 31.5}
{"COMPOUND": "COc1ccc(C2CC(c3ccc(Nc4nc(Nc5ccc(F)cc5)nc(Nc5ccc(Cl)cc5)n4)cc3)=NN2C(C)=O)cc1 (stereo unspecified)", "growth [%]": 128}
{"COMPOUND": "C[C@H]1[C@H]2[C@H]3CC[C@@H]4[C@@]5(C)CC[C@H](O)C(C)(C)[C@@H]5CC[C@@]4(C)[C@]3(C)CC[C@]23CO[C@]1(C)[C@@H](C(=O)/C=C\\c1cccnc1)C3", "growth [%]": 46.7}
{"COMPOUND": "CCOC(=O)c1c(C)oc2ncnc(N3CCN(C(=O)COc4ccc(C(C)(C)C)cc4)CC3)c12", "growth [%]": 98.4}
{"COMPOUND": "O=C(CCc1nnc(-c2c(Cl)cccc2Cl)o1)c1nc2ccccc2[nH]1", "growth [%]": 66.4}

====

tested on: MDA-MB-231 breast; assay: NCI-60 one-dose screen, 48 h; conditions: 10 µM unless noted
The panel holds about 83,000 compounds, 20% with a hit somewhere; the sample as a whole holds those more often. Active and inactive are the calls of the source. Rule for the calls: active = growth percent below 10; inactive = the rest.
Labels: active, inactive

{"COMPOUND": "Cc1nc2cnc(N)c(C#Cc3cncc(C(=O)Nc4ccc(CN5CCN(C)CC5)c(C(F)(F)F)c4)c3)c2nc1C", "CLASSIFICATION": "active"}
{"COMPOUND": "CN(C)c1ccc2nc3ccc(=[N+](C)C)c([N+](=O)[O-])c-3sc2c1", "CLASSIFICATION": "active"}
{"COMPOUND": "O=C(CCOCCNC(=O)COc1ccc2c(c1)OCC(c1ccc(F)cc1)C2=O)NCCCC(O)(P(=O)(O)O)P(=O)(O)O (stereo not drawn)", "CLASSIFICATION": "inactive"}
{"COMPOUND": "NC(=O)Nc1ccc2ncnc(Nc3ccc(Cl)cc3)c2c1", "CLASSIFICATION": "inactive"}
{"COMPOUND": "Cc1cccc2c1S/C(=C/c1ccc([N+](=O)[O-])cc1)C2=O", "CLASSIFICATION": "inactive"}
{"COMPOUND": "NCCCNc1nc2ccccc2c2c(=O)c3cc(F)cc(F)c3sc12", "CLASSIFICATION": "inactive"}
{"COMPOUND": "COc1ccc(CNC(=O)[C@H](O)[C@@H](N)Cc2ccccc2)cc1", "CLASSIFICATION": "inactive"}
{"COMPOUND": "COc1ccc(-c2cnc3ccccc3n2)cc1", "CLASSIFICATION": "inactive"}

====

Test system: UO-31 renal
Assay: NCI-60 one-dose screen, 48 h (100 = growth as untreated, 0 = no growth, -100 = all killed)
Settings: 10 µM unless noted
Description: Growth inhibition of the UO-31 human tumor cell line is measured as a screen for anti-cancer activity. Cells are grown in 96 well plates and exposed to the test compound for 48 hours. Compounds are tested at a single concentration, which is 10^-5 M for most compounds. The reported endpoint is percent growth (GI% or GIPRCNT), where numbers from 0 - 100% represent growth inhibition, and numbers from -100% - 0 represent cell death. For example, a value of 40 represents 60% growth inhibition. […]
Compounds without any hit were thinned out: in the full panel of roughly 83,000, 20% have a hit.
Cut-off 80% on growth, inclusive. At or above means 1 (yes); below means 0 (no).

{"COMPOUND": "COc1ccc(C2CC(c3ccc(Nc4nc(Nc5ccc(F)cc5)nc(Nc5ccc(Cl)cc5)n4)cc3)=NN2C(C)=O)cc1 (stereo unspecified)", "TARGET_ENTITY": "UO-31 renal", "CLASSIFICATION": "0 (no)"}
{"COMPOUND": "Cc1cccc(OCC(O)CN2CCN(c3ccc(Cl)cc3)CC2)c1 (stereo unspecified)", "TARGET_ENTITY": "UO-31 renal", "CLASSIFICATION": "1 (yes)"}
{"COMPOUND": "COc1ccc(/C=C2\\Oc3cc(OCCN4CCC(Cc5ccccc5)CC4)ccc3C2=O)cc1OC", "TARGET_ENTITY": "UO-31 renal", "CLASSIFICATION": "0 (no)"}
{"COMPOUND": "O=C(O)c1cn(C2CC2)c2cc(N3CCN(C(=O)Nc4nc(-c5ccccc5)cs4)CC3)c(F)cc2c1=O", "TARGET_ENTITY": "UO-31 renal", "CLASSIFICATION": "0 (no)"}
{"COMPOUND": "COc1ccc(/C=N/Nc2cc(=O)[nH]c3ccc(C)cc23)cc1", "TARGET_ENTITY": "UO-31 renal", "CLASSIFICATION": "0 (no)"}
{"COMPOUND": "O=c1c2cc(F)ccc2sc2c(N3CCNCC3)nc3ccccc3c12", "TARGET_ENTITY": "UO-31 renal", "CLASSIFICATION": "0 (no)"}
{"COMPOUND": "O=C(Nn1c(NCC(=O)N2c3ccccc3Sc3ccccc32)nnc1-c1ccc(O)cc1)c1ccccc1", "TARGET_ENTITY": "UO-31 renal", "CLASSIFICATION": "1 (yes)"}
{"COMPOUND": "BrCCCc1n(Cc2ccc3ccccc3c2)c2ccccc2[n+]1Cc1ccc2ccccc2c1", "TARGET_ENTITY": "UO-31 renal", "CLASSIFICATION": "0 (no)"}
{"COMPOUND": "COc1nc2ccc(C)cc2cc1-c1nc2c(cnn2-c2ccc(Br)cc2)c(=O)[nH]1", "TARGET_ENTITY": "UO-31 renal", "CLASSIFICATION": "0 (no)"}
{"COMPOUND": "Cc1ccc(NC2=C(Cl)C(=O)c3nc(C)ccc3C2=O)cc1", "TARGET_ENTITY": "UO-31 renal", "CLASSIFICATION": "0 (no)"}
{"COMPOUND": "COc1cccc(/C=C2\\C=C(c3ccccc3)N(Cc3ccccc3)C2=O)c1", "TARGET_ENTITY": "UO-31 renal", "CLASSIFICATION": "0 (no)"}
{"COMPOUND": "CCc1nnc(NC(=O)c2nnn(-c3ccccc3)c2-c2ccco2)s1", "TARGET_ENTITY": "UO-31 renal", "CLASSIFICATION": "1 (yes)"}
{"COMPOUND": "O=C(N/N=C/[C@H](O)[C@@H](O)[C@@H](O)[C@H](O)CO)c1ccc(NC(=O)c2cccnc2)cc1", "TARGET_ENTITY": "UO-31 renal", "CLASSIFICATION": "1 (yes)"}
{"COMPOUND": "CN1C(=C2C(=O)OC(C)(C)OC2=O)CCC1C(=O)NCc1ccc(Cl)cc1Cl (stereo unspecified)", "TARGET_ENTITY": "UO-31 renal", "CLASSIFICATION": "1 (yes)"}
{"COMPOUND": "NCCCNc1nc2ccccc2c2c(=O)c3cccc(F)c3sc12", "TARGET_ENTITY": "UO-31 renal", "CLASSIFICATION": "0 (no)"}
